Recorded relative viability for the following molecules
- Test system: SW1353
- assay-details: relative viability vs DMSO control (72 h) (fraction); higher = more viable cells
- experimental-context: 0.04115 µM
Format: numeric value only, no unit, no commentary.

>>> meas_value("CC(C)NC[C@@H](C(=O)N1CCN(c2ncnc3c2[C@H](C)C[C@H]3O)CC1)c1ccc(Cl)cc1 [Ipatasertib]")
0.93

Exercise: Entry CCC(=O)N1CC[C@H](Nc2ncnc3c2CN(c2cnc(OC)c(C(F)(F)F)c2)CC3)C1 [Leniolisib] has what relative viability?
Key: 0.944

Exercise: Repeat for the following molecule: COC(=O)[C@@]1(O)C[C@H]2O[C@]1(C)n1c3ccccc3c3c4c(c5c6ccccc6n2c5c31)C(=O)NC4 [K-252a]
Key: 0.892

Exercise: Also need CC#CC(=O)N1CCC[C@H]1c1nc(-c2ccc(C(=O)Nc3ccccn3)cc2)c2c(N)nccn12 [Acalabrutinib] , thanks.
Key: 0.944
